Target: T1, human OX40 expressed on the cell surface (human, UniProt P43489 29-277)
T1 sequence (looked up): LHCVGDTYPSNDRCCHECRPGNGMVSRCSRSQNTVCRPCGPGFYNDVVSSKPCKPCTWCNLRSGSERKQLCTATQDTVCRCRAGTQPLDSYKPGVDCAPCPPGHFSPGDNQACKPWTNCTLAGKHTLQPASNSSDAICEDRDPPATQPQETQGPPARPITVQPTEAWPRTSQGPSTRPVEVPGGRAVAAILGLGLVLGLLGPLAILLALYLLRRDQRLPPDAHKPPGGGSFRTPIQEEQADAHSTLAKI
Assay: cell-based or functional assay
measured_quantity: Agonistic activity on T cells, IFNγ release, EC50 (nM)
Entry rule: numbers only, all in nM.

Agonistic activity on T cells, IFNγ release, EC50 reported for this binder Hu38E11-v3 (antibody, human IgG1, V domains shown) VH: QVQLVQSGAEVKKPGASVKVSCKASGYTFTSYWVDWVRQAPGQGLEWMGNIYPSDSETHYNQKFKDRVTMTRDTSTSTVYMELSSLRSEDTAVYYCARSYGYYGTWFAYWGQGTLVTVSS VL: DIVMTQSPDSLAVSLGERATINCRASESVDSSGNSFMHWYQQKPGQPPKLLIYRASNLESGIPDRFSGSGSGTDFTLTISSVQAEDVAVYYCQQSNEDPWTFGGGTKLEIK : 1.7
